- Test system: HT29 colon
- Assay comment: NCI-60 one-dose screen, 48 h
- Settings: 10 µM unless noted
The panel holds about 83,000 compounds, 20% with a hit somewhere; the sample as a whole holds those more often. Active and inactive are the calls of the source. How the source made its calls: active means growth percent below 10; inactive means the rest.
Permitted responses: class 1 = active, class 0 = inactive

Query block: Test call for this compound, please: CNC1=C(Br)C(=O)c2c(C(=O)OC)c(C)nc(C)c2C1=O
Result block: class 0

Query block: Test call for this compound, please: Nc1ncc(-c2ccc3ncnc(N4CCc5cc(F)c(Cl)cc54)c3c2)cc1C=O
Result block: class 0

* * *

- Test system: OVCAR-5 ovarian
- Assay comment: NCI-60 one-dose screen, 48 h (100 = growth as untreated, 0 = no growth, -100 = all killed)
- Settings: 10 µM unless noted
About 83,000 compounds went through this panel and 20% of them were active in at least one assay; those are over-represented in the sample as a whole.
// reported growth per item
Express your answer in %, writing the number without its unit.

Use these answered entries as a reference point.
CC(C)=CC(=O)C1C(=O)c2ccccc2C1=O; 97.3
CCC(=C(c1ccc(OCCN(CC)CC)cc1)c1ccc(OCCN(CC)CC)cc1)c1ccc(Cl)cc1; -52.8
COc1cc2nc3cc([N+](=O)[O-])ccc3c(NCCCNCCO)c2cc1OC; -15.2

O=C(O)COc1ccc(F)cc1 yielded growth of 109

* * *

- System: HOP-62 NSCLC
- Assay comment: NCI-60 one-dose screen, 48 h
- Settings: 10 µM unless noted
The panel holds about 83,000 compounds, 20% with a hit somewhere; the sample as a whole holds those more often. Calls of active or inactive are those of the source. How the source made its calls: active means growth percent below 10; inactive means the rest.
Permitted responses: active, inactive

Consider the following illustrative entries.
O=C(O)c1nn(-c2ccc(Cl)cc2)nc1N1CCCC1; inactive
O=C(CSc1nc(-c2ccccc2)cn1-c1ccc(Cl)cc1)c1ccc([N+](=O)[O-])cc1; inactive

Read the next record carefully.
Query block: Test call for this compound, please: C#Cc1cccc(Nc2ncnc3ccc(-c4cnc(Cl)c(NS(C)(=O)=O)c4)cc23)c1
Result block: active

* * *

- System: NCI-H460 lung
- Assay comment: NCI-60 one-dose screen, 48 h
- Settings: 10 µM unless noted
The panel holds about 83,000 compounds, 20% with a hit somewhere; the sample as a whole holds those more often. The source made the active and inactive calls. How the source made its calls: active means growth percent below 10; inactive means the rest.
Permitted responses: 1 (active), -1 (inactive)

Consider the following illustrative entries.
N#C/C(Sc1nc2sc3c(c2c(=O)n1Cc1ccccc1)CCCC3)=C1/SC=C(c2ccc(Cl)cc2)N1c1ccccc1; -1
c1ccc(-c2nc(N3CCNCC3)c3oc(-c4ccccc4)nc3n2)cc1; 1
O=C1CCc2c(sc3[nH]c(=S)n(-c4cc(C(F)(F)F)cc(C(F)(F)F)c4)c(=O)c23)C1; 1
O=CN1N=C(c2cccc(Nc3ccncc3)c2)CC1c1ccc2c(c1)OCO2 (centres undefined); -1
CN(C)c1ccc(/C=C/C2=[N+](C)c3ccccc3C2(C)C)cc1; -1
O=c1ccc2nc(-c3ccccc3)nn(-c3ccccn3)c-2c1; -1
COc1ccc(NC(=O)c2sc3nc(C)c(C(=O)c4ccccc4)cc3c2N)cc1; -1
O=C(NCCN1CCOCC1)c1cncnc1Nc1ccc2c(ccn2Cc2ccccn2)c1; -1
Nc1ncc(-c2ccc3ncnc(N4CCc5cc(F)c(Cl)cc54)c3c2)cc1C(F)(F)F; -1
O=C(CNc1ncco1)Nc1ccc(S(=O)(=O)c2ccc(NC(=O)CNc3ncco3)cc2)cc1; 1

Query block: Test call for this molecule, please: Cn1cc(-c2csc(-c3cn(CCO)c4ccc(F)cc34)n2)c2cccnc21
Result block: -1

Query block: Test call for this molecule, please: CS(=O)(=O)Nc1cc(-c2ccc3ncnc(Nc4cccc(Cl)c4)c3c2)cnc1Cl
Result block: 1

Query block: Test call for this molecule, please: COC(=O)[C@H](C)NC(=O)[C@@H]1CCCN1C(=O)CNC(=O)[C@H](C)N
Result block: -1

* * *

- Test system: BT-549 breast
- Assay comment: NCI-60 one-dose screen, 48 h
- Settings: 10 µM unless noted
The panel holds about 83,000 compounds, 20% with a hit somewhere; the sample as a whole holds those more often. Activity calls are given as the source filed them. The calls were made as follows: active = growth percent below 10; inactive = the rest.
Permitted responses: true (1) (active), false (0) (inactive)

Consider the following illustrative entries.
Cc1nn(-c2ccccc2)c(Oc2ccccc2)c1/C=N/NC(=O)Cn1c(=O)sc2ccccc21; false (0)
C=C(C)[C@@H]1CC[C@]2(COC(=O)c3cccnc3)CC[C@]3(C)[C@H](CC[C@@H]4[C@@]5(C)CCCN(C(=O)c6cccnc6)C(C)(C)[C@@H]5CC[C@]43C)[C@@H]12; false (0)
c1ccc(-c2nc(N3CCNCC3)c3oc(-c4ccccc4)nc3n2)cc1; false (0)

Query block: Test call for this compound, please: O=C(/C=C/c1ccc(Cl)cc1)c1ccc(Nc2ccnc3cc(Cl)ccc23)cc1
Result block: false (0)

Query block: Test call for this compound, please: O=C(OCc1ccc2c(Br)cc(Br)c(O)c2n1)N1CCN(C(=O)c2cc3ccccc3[nH]2)CC1
Result block: false (0)

Query block: Test call for this compound, please: COc1ccc(/C=N\NC(=O)c2ccc3nc(-c4ccc(Cl)cc4)[nH]c3c2)cc1
Result block: false (0)

Query block: Test call for this compound, please: Nc1ncc(-c2ccc3ncnc(N4CCc5cc(F)c(Cl)cc54)c3c2)cc1C=O
Result block: true (1)

Query block: Test call for this compound, please: CNC(=O)c1cc(Oc2ccc3nc(NC(=O)c4cc(C(F)(F)F)cc(C(F)(F)F)c4)sc3c2)ccn1
Result block: false (0)

* * *

- System: MDA-MB-435 melanoma
- Assay comment: NCI-60 one-dose screen, 48 h (100 = growth as untreated, 0 = no growth, -100 = all killed)
- Settings: 10 µM unless noted
The panel holds about 83,000 compounds, 20% with a hit somewhere; the sample as a whole holds those more often.
// reported growth per item
Express your answer in %, writing the number without its unit.

CCCCN(CCC#N)C(N)=O; 110

Cc1cc([N+](=O)[O-])ccc1NC(=O)c1ccc2c(c1)nc(-c1ccccc1)n2C1CCCCC1 yielded growth of 92.2

O=C(Nc1ncc(Cc2ccc(Cl)cc2)s1)c1ccc2c(c1)OCCO2 yielded growth of 5.85

C=CCNc1nc(O)c(/C=C2\C=Nc3ncccc32)s1 yielded growth of 21.1

COc1ccc(C(=O)/C=C/Nc2cc(-c3ccccc3)nn2-c2ccccc2)cc1 yielded growth of 99.2

CC(=O)OCCOc1cc(Cl)c(Cl)cc1Cl yielded growth of 106

CS(=O)(=O)c1ccc(/C(=N/NC(N)=S)c2ccc(F)cc2)cc1 yielded growth of 102

N#CSCc1cc(Cl)c(CSC#N)cc1Cl yielded growth of 34.9

* * *

// reported growth per item
- Test system: T-47D breast
- Assay comment: NCI-60 one-dose screen, 48 h (100 = growth as untreated, 0 = no growth, -100 = all killed)
- Settings: 10 µM unless noted
About 83,000 compounds went through this panel and 20% of them were active in at least one assay; those are over-represented in the sample as a whole. Active and inactive are the calls of the source. Rule for the calls: active = growth percent below 10; inactive = the rest.

Use these answered entries as a reference point.
COc1cccc(-c2nn(-c3ccccc3)cc2-c2ccnc(-c3cccnc3)c2)c1; 76.9% (inactive)
CCCCCN(CCCCC)CC(O)c1c(Cl)ccc2ccccc12 (stereo not given); 69% (inactive)
COc1ccccc1/C=C/C1=C(C)CCC(c2ccccc2OC)C1C (stereo not given); 61.9% (inactive)
O=C(CSc1nnc(-c2ccc(Cl)c(Cl)c2)n1-c1ccccc1)Nc1ccc(C(=O)/C=C/c2ccc(Cl)cc2)cc1; 81.8% (inactive)

O=C(Nc1ccccc1)Nc1ccccc1CNc1nc(Nc2ccc(OCCN3CCCC3)cc2)ncc1Cl yielded growth of 55.7% (inactive)

* * *

// reported growth per item
- Tested on: NCI-H23 lung
- Assay comment: NCI-60 one-dose screen, 48 h (100 = growth as untreated, 0 = no growth, -100 = all killed)
- Settings: 10 µM unless noted
The panel holds about 83,000 compounds, 20% with a hit somewhere; the sample as a whole holds those more often.
Express your answer in %, writing the number without its unit.

The compound Cn1cc(-c2ccc3occ(-c4cccc(-c5ccncc5)c4)c3n2)cn1 , tested on NCI-H23 lung, showed growth of 19.5

The compound Cc1ccc(C2(C)NC(=O)N(CC(=O)Nc3cccc(C)c3)C2=O)cc1 (stereo not given) , tested on NCI-H23 lung, showed growth of 96.5

The compound O=C(O)COc1ccc(F)cc1 , tested on NCI-H23 lung, showed growth of 96.8

The compound CCN1CCN(c2cc(C(=O)Nc3cccc(Nc4ccc5c(OC)cccc5n4)c3)cc(C(F)(F)F)c2)CC1 , tested on NCI-H23 lung, showed growth of 44.5

The compound COc1ccc(S(=O)(=O)Oc2ccc(-c3sc4cc(OS(=O)(=O)c5ccc(OC)cc5)ccc4c3C(=O)c3ccc(OCCN4CCCCC4)cc3)cc2)cc1 , tested on NCI-H23 lung, showed growth of 104

The compound COc1ccc(NC(=O)c2ccc(Cl)cc2Cl)cc1 , tested on NCI-H23 lung, showed growth of 85.3

The compound O=C(/C=C\c1ccc(O)c(O)c1)c1ccccc1O , tested on NCI-H23 lung, showed growth of 86.5

The compound Cc1cc(N2CCOCC2)nc(N(CCCNc2ccnc3cc(Cl)ccc23)Cc2ccc3c(c2)OCO3)n1 , tested on NCI-H23 lung, showed growth of 13.5

The compound O=C(/C=C/c1ccc(Cl)cc1)c1ccc(-n2cc(CN3CCN(c4cc5c(cc4F)c(=O)c(C(=O)O)cn5C4CC4)CC3)nn2)cc1 , tested on NCI-H23 lung, showed growth of 85.4

The compound COc1ccc(S(=O)(=O)NC2c3ccccc3CC2O)cc1OC (stereo not given) , tested on NCI-H23 lung, showed growth of 103
